B1: library; a variant is named by its letters at X, in order (parent)
chain: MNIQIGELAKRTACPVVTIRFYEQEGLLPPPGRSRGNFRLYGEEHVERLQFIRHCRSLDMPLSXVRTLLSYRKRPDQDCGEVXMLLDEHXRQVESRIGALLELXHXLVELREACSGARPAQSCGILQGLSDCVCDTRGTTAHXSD

Variants of: B1
Assay: sfGFP reporter fluorescence (15 h) (µM FITC); higher = higher leak
Details: library round: Round 3b; ligand: none
Threshold check on sfGFP reporter fluorescence: at or above 0.05 gives true (1), strictly below gives false (0).

# check: sfGFP reporter fluorescence of MNIQIGELAKRTACPVVTIRFYEQEGLLPPPGRSRGNFRLYGEEHVERLQFIRHCRSLDMPLSDVRTLLSYRKRPDQDCGEVIMLLDEHIRQVESRIGALLELTHELVELREACSGARPAQSCGILQGLSDCVCDTRGTTAHRSD [DIITER] is greater than or equal to 0.05
false (0)

# check: sfGFP reporter fluorescence of MNIQIGELAKRTACPVVTIRFYEQEGLLPPPGRSRGNFRLYGEEHVERLQFIRHCRSLDMPLSDVRTLLSYRKRPDQDCGEVIMLLDEHARQVESRIGALLELKHELVELREACSGARPAQSCGILQGLSDCVCDTRGTTAHRSD [DIAKER] is greater than or equal to 0.05
false (0)

# check: sfGFP reporter fluorescence of MNIQIGELAKRTACPVVTIRFYEQEGLLPPPGRSRGNFRLYGEEHVERLQFIRHCRSLDMPLSKVRTLLSYRKRPDQDCGEVIMLLDEHARQVESRIGALLELTHHLVELREACSGARPAQSCGILQGLSDCVCDTRGTTAHTSD [KIATHT] is greater than or equal to 0.05
true (1)

# check: sfGFP reporter fluorescence of MNIQIGELAKRTACPVVTIRFYEQEGLLPPPGRSRGNFRLYGEEHVERLQFIRHCRSLDMPLSDVRTLLSYRKRPDQDCGEVIMLLDEHARQVESRIGALLELTHELVELREACSGARPAQSCGILQGLSDCVCDTRGTTAHPSD [DIATEP] is greater than or equal to 0.05
false (0)

# check: sfGFP reporter fluorescence of MNIQIGELAKRTACPVVTIRFYEQEGLLPPPGRSRGNFRLYGEEHVERLQFIRHCRSLDMPLSKVRTLLSYRKRPDQDCGEVFMLLDEHIRQVESRIGALLELTHELVELREACSGARPAQSCGILQGLSDCVCDTRGTTAHPSD [KFITEP] is greater than or equal to 0.05
false (0)

# check: sfGFP reporter fluorescence of MNIQIGELAKRTACPVVTIRFYEQEGLLPPPGRSRGNFRLYGEEHVERLQFIRHCRSLDMPLSDVRTLLSYRKRPDQDCGEVFMLLDEHIRQVESRIGALLELTHALVELREACSGARPAQSCGILQGLSDCVCDTRGTTAHRSD [DFITAR] is greater than or equal to 0.05
false (0)

# check: sfGFP reporter fluorescence of MNIQIGELAKRTACPVVTIRFYEQEGLLPPPGRSRGNFRLYGEEHVERLQFIRHCRSLDMPLSDVRTLLSYRKRPDQDCGEVFMLLDEHARQVESRIGALLELVHELVELREACSGARPAQSCGILQGLSDCVCDTRGTTAHPSD [DFAVEP] is greater than or equal to 0.05
false (0)

# check: sfGFP reporter fluorescence of MNIQIGELAKRTACPVVTIRFYEQEGLLPPPGRSRGNFRLYGEEHVERLQFIRHCRSLDMPLSKVRTLLSYRKRPDQDCGEVNMLLDEHARQVESRIGALLELTHELVELREACSGARPAQSCGILQGLSDCVCDTRGTTAHTSD [KNATET] is greater than or equal to 0.05
true (1)

# check: sfGFP reporter fluorescence of MNIQIGELAKRTACPVVTIRFYEQEGLLPPPGRSRGNFRLYGEEHVERLQFIRHCRSLDMPLSDVRTLLSYRKRPDQDCGEVIMLLDEHARQVESRIGALLELVHELVELREACSGARPAQSCGILQGLSDCVCDTRGTTAHTSD [DIAVET] is greater than or equal to 0.05
false (0)

# check: sfGFP reporter fluorescence of MNIQIGELAKRTACPVVTIRFYEQEGLLPPPGRSRGNFRLYGEEHVERLQFIRHCRSLDMPLSKVRTLLSYRKRPDQDCGEVIMLLDEHARQVESRIGALLELTHALVELREACSGARPAQSCGILQGLSDCVCDTRGTTAHPSD [KIATAP] is greater than or equal to 0.05
true (1)

# check: sfGFP reporter fluorescence of MNIQIGELAKRTACPVVTIRFYEQEGLLPPPGRSRGNFRLYGEEHVERLQFIRHCRSLDMPLSKVRTLLSYRKRPDQDCGEVIMLLDEHARQVESRIGALLELVHHLVELREACSGARPAQSCGILQGLSDCVCDTRGTTAHPSD [KIAVHP] is greater than or equal to 0.05
true (1)

# check: sfGFP reporter fluorescence of MNIQIGELAKRTACPVVTIRFYEQEGLLPPPGRSRGNFRLYGEEHVERLQFIRHCRSLDMPLSDVRTLLSYRKRPDQDCGEVFMLLDEHARQVESRIGALLELKHALVELREACSGARPAQSCGILQGLSDCVCDTRGTTAHRSD [DFAKAR] is greater than or equal to 0.05
false (0)

# check: sfGFP reporter fluorescence of MNIQIGELAKRTACPVVTIRFYEQEGLLPPPGRSRGNFRLYGEEHVERLQFIRHCRSLDMPLSKVRTLLSYRKRPDQDCGEVIMLLDEHARQVESRIGALLELVHHLVELREACSGARPAQSCGILQGLSDCVCDTRGTTAHRSD [KIAVHR] is greater than or equal to 0.05
true (1)

# check: sfGFP reporter fluorescence of MNIQIGELAKRTACPVVTIRFYEQEGLLPPPGRSRGNFRLYGEEHVERLQFIRHCRSLDMPLSKVRTLLSYRKRPDQDCGEVIMLLDEHARQVESRIGALLELKHALVELREACSGARPAQSCGILQGLSDCVCDTRGTTAHTSD [KIAKAT] is greater than or equal to 0.05
true (1)

# check: sfGFP reporter fluorescence of MNIQIGELAKRTACPVVTIRFYEQEGLLPPPGRSRGNFRLYGEEHVERLQFIRHCRSLDMPLSKVRTLLSYRKRPDQDCGEVNMLLDEHARQVESRIGALLELVHALVELREACSGARPAQSCGILQGLSDCVCDTRGTTAHTSD [KNAVAT] is greater than or equal to 0.05
false (0)

# check: sfGFP reporter fluorescence of MNIQIGELAKRTACPVVTIRFYEQEGLLPPPGRSRGNFRLYGEEHVERLQFIRHCRSLDMPLSKVRTLLSYRKRPDQDCGEVIMLLDEHARQVESRIGALLELTHHLVELREACSGARPAQSCGILQGLSDCVCDTRGTTAHPSD [KIATHP] is greater than or equal to 0.05
true (1)

# check: sfGFP reporter fluorescence of MNIQIGELAKRTACPVVTIRFYEQEGLLPPPGRSRGNFRLYGEEHVERLQFIRHCRSLDMPLSDVRTLLSYRKRPDQDCGEVFMLLDEHARQVESRIGALLELVHALVELREACSGARPAQSCGILQGLSDCVCDTRGTTAHPSD [DFAVAP] is greater than or equal to 0.05
false (0)

# check: sfGFP reporter fluorescence of MNIQIGELAKRTACPVVTIRFYEQEGLLPPPGRSRGNFRLYGEEHVERLQFIRHCRSLDMPLSDVRTLLSYRKRPDQDCGEVFMLLDEHARQVESRIGALLELTHALVELREACSGARPAQSCGILQGLSDCVCDTRGTTAHPSD [DFATAP] is greater than or equal to 0.05
false (0)

Where do the numbers come from? From the supplement of paper PMC12783771.
